system: UACC-257; assay: NCI tumour cell line growth inhibition, 48 h
Calls of active or inactive are those of the source. Rule as the data show it: active = GI50 up to about 1.1 µM and inactive = higher.

# molecule, target.or.test.system, GI50
rows = [
    ("O=C1C2=C(N[C@@H](c3ccccc3)[C@H](c3ccccc3)N2)C(=O)c2ccccc21", "UACC-257", "> 100 µM (inactive)"),
    ("Oc1cc(-n2cccn2)c(O)cc1-n1cccn1", "UACC-257", "32.1 µM (inactive)"),
    ("O=C1NC(=S)NC(=O)C1=Cc1ccc[nH]1", "UACC-257", "20.9 µM (inactive)"),
    ("CNN1C(=O)c2c(N)c(C#N)c(-c3ccccc3)c(-c3ccccc3)c2C1=O", "UACC-257", "> 100 µM (inactive)"),
    ("COC(=O)CN(CC(=O)NCCNC(=O)OC(C)(C)C)C1CCCCC1N(CC(=O)OC)CC(=O)OC (centres undefined)", "UACC-257", "> 100 µM (inactive)"),
    ("Brc1ccc(/N=N/c2ccc3ccccc3n2)cc1", "UACC-257", "82.8 µM (inactive)"),
    ("O=C(Nc1c(Cl)cccc1Cl)c1c(Cl)c(Cl)c(Cl)c(Cl)c1-c1nc2ccccc2[nH]1", "UACC-257", "> 100 µM (inactive)"),
    ("CC1=NOC2(C1)/C(=N/O)CCC/C2=N\\O (centres undefined)", "UACC-257", "> 100 µM (inactive)"),
    ("CCOC(=O)C1CC(C(=O)c2ccccc2)N2c3ccccc3-c3ccccc3C12 (centres undefined)", "UACC-257", "> 100 µM (inactive)"),
]
